Source listed as PubChem BioAssay (NCATS).

Test system: PC15
Test: qHTS profiling for inhibitors of Plasmodium falciparum proliferation (AID 504749); further: nearly all actives have a fitted effect of over 60% in size
Conditions: P. falciparum in erythrocytes, SYBR Green DNA, 72 h; series mostly up to 28.7 µM
Records with an inconclusive call do not appear. The source made the active and inactive calls. The call rests on the fitted dose curve; in most records, active means well fitted inhibition curve with a large enough effect; inconclusive means small, poorly fitted or top-dose-only effect; inactive means flat fitted curve, though single readings scatter.
Form entry, call: pick from active, inactive

* CCCCCCCCOc1ccc(C(=O)c2ccccc2)c(O)c1 | inactive
* C#C[C@]1(O)CC[C@H]2[C@@H]3CCc4cc(OC)ccc4[C@H]3CC[C@@]21C | inactive
* NCCNc1cccc2ccccc12 | inactive
* CCc1oc2ccccc2c1C(=O)c1cc(Br)c(O)c(Br)c1 | inactive
* CN1CCN(c2c(F)cc3c(=O)c(C(=O)O)cn4c3c2SCC4)CC1 | inactive

Tell me the assay call for Cc1c(-c2ccccc2)oc2c(C(=O)OCCN3CCCCC3)cccc2c1=O please. inactive

So what was the verdict on CCC(CC)(CC(=O)Nc1cccc(/C=C/c2nc(C3CCC3)cs2)c1)C(=O)O in this test? inactive

// outcome(item) with item = CCOC(=O)C(C#N)=C(c1ccccc1)c1ccccc1 inactive

Record lookup: outcome of this test for CC(C)Nc1cccnc1N1CCN(C(=O)c2cc3cc(NS(C)(=O)=O)ccc3[nH]2)CC1 ? inactive

Which outcome did this test record for the molecule Nc1ccc(S(=O)(=O)Nc2cnc3ccccc3n2)cc1 ? inactive

For Cc1cc(CC(=O)O)c(C)n1-c1ccc(Cl)cc1 , what call appears in the results of this test? inactive

I'd appreciate the recorded outcome for O=C1C(O)=C(O)C(=O)C(O)=C1O from this test. inactive

So what was the verdict on CC(C)Cc1ccc(CC(=O)O)cc1 in this test? inactive

Write down the call the test reported for this molecule. Item: Nc1nc(N)c(-c2ccccc2)s1 inactive

Please let me know the test result on file for Nc1ccc(S(=O)(=O)NCc2ccccc2)cc1 . inactive

Test call, this molecule: O=C(Nc1ncc([N+](=O)[O-])s1)c1cccs1 inactive

Write down the call the test reported for this molecule. Item: CCCCCCCC/C=C\CCCCCCCCN inactive

What did this assay record as the result for O=C(O)CCNC(=O)c1ccccc1 ? inactive

# outcome recorded in this test, key = COc1ccc(-c2cc(C(F)F)nn2-c2ccc(S(N)(=O)=O)cc2)cc1F inactive

Short answer needed: outcome of this test for Cc1c[nH]c2ccccc12 ? inactive

# lookup: test call for Cc1cc(C)cc(OCC2CNC(=O)O2)c1 (stereo unspecified) inactive

Recorded test outcome, item Cc1cccc(C)c1NC(=O)CN1CCCCCC1 inactive

// outcome(item) with item = O=C(O)c1ccc(S(=O)(=O)N(Cl)Cl)cc1 inactive

# lookup: test call for OC1C(O)C(O)C(O)C(O)C1O (stereo unspecified) inactive

What call does the record list for Clc1cccc(C(c2ccc3nc[nH]c3c2)n2ccnc2)c1 (stereo unspecified) ? active

In this assay, the call recorded for CC(C)(C)NC[C@H](O)COc1nsnc1N1CCOCC1 was what? active

Call for entry Cc1ccccc1OCC(O)CO (stereo unspecified) : inactive

* * *

Please go through the items and note down their max response.
Assay: qHTS Assay for Identifying Gametocytocidal Compounds (AID 743244);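 further: on the % scale 0 is the no-effect control and ±100 the full control effect; actives lower the fluorescent signal which means gametocytes are killed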
Details: P. falciparum 3D7 stage III-V gametocytes, alamarBlue, 72 h; hits give low values
Text: Malaria cases and deaths have dropped 50% in 29 countries since 2000 due to the combined effects of long-lasting insecticidal bednets, indoor residual spraying, and artemisinin-based combination therapies (ACTs). […] Within live cells, the nonfluorescent resazurin is reduced to resorufin, a bright red fluorescence dye. Fluorescence decreases upon treatment of gametocytocidal compounds. […]
Inconclusive results are not listed.
Numbers only, in %.

Worked cases, max response given:
* O=C(O)Cc1csc(-c2ccc(Cl)cc2)n1 | -4.61
* CC1(C)OC[C@@H]2O[C@@]3(C(=O)O)OC(C)(C)O[C@H]3[C@@H]2O1 | -4.16
* O=C(Nc1ncc([N+](=O)[O-])s1)c1cccs1 | 35.1
* CCC1Nc2cc(Cl)c(S(N)(=O)=O)cc2S(=O)(=O)N1 (configuration not stated) | 7.47
* CCN(CC)CCOC(=O)C1(c2ccccc2)CCCC1 | -2.23
* O=C(Nc1cccc(C2=NCCN2)c1)Nc1cccc(C2=NCCN2)c1 | -7.84
* CC(=O)NCCCCCC(=O)O | -5.55
* NS(=O)(=O)Cc1noc2ccccc12 | -3.32

Give measured max response for every item shown.
1. C#C[C@]1(O)CC[C@H]2[C@@H]3CCC4=CC(=O)CC[C@@H]4[C@H]3CC[C@@]21CC
2. CC1CCc2c(N3CCC(O)CC3)c(F)cc3c(=O)c(C(=O)O)cn1c23 (configuration not stated)
3. CC(=O)Nc1ccc(OCC(O)CNC(C)C)cc1 (configuration not stated)
4. CCc1oc2ccccc2c1C(=O)c1cc(Br)c(O)c(Br)c1

1: 6.28; 2: 21.4; 3: -2.82; 4: -6.8
